// data source = the supplement of paper PMC10567573

B1: CLCN6 (parent)
chain: TGLVGLFVDFFVRLFTQLKFGVVQ

variants of: B1; test: protein stability index of a GFP-peptide fusion (GPS, HEK-293T) (PSI 1-6); higher = more stable; conditions: c terminus: a fixed tail appended;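 note: lentivirally expressed fusions sorted by FACS into six bins by GFP to DsRed ratio, PSI derived from sequencing read proportions per bin multiplied by bin number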
Would you mind labelling by protein stability index? At or over 3 is condition met, under is condition not met.

Q. Please indicate if the recorded protein stability index for V23M meets or exceeds 3.
A. condition not met

Q. Same thing, different variant: F7L
A. condition not met

Q. Please answer likewise for T16H
A. condition not met

Q. Okay, and Q24F ?
A. condition not met

Q. Repeat with R13C
A. condition not met

Q. And then Q24K , what is it?
A. condition met

Q. Subsequent entry: V8M
A. condition not met

Q. Now try G21Y .
A. condition met

Q. Same lookup for F11H , please.
A. condition not met

Q. Same again, this time with F15L
A. condition not met
